# measurement notes: Cmax in fed Beagle dog at 30 mg/kg, po measured upto 24 hrs by LC-MS/MS analysis
# Format: ADME, organism-based, Canis lupus familiaris
# assay setup: in vivo
outcome measure: Cmax (µM)
Numbers only, in µM.

query: Using the record for `O=C1CCCC2(CCN(c3cc(OCC(F)(F)F)ncn3)CC2)N1c1ccc(F)c(F)c1` , report its Cmax.
result: 8.35

* * *

# measurement notes: Volume of distribution at steady state in cynomolgus monkey at 0.1 mg/kg, iv measured upto 24 hrs by LC-MS/MS analysis
# Type: ADME, organism-based, Macaca fascicularis
# assay setup: in vivo, read-out: Vdss
outcome measure: Vd (L/kg)
Answers are plain numbers, in L/kg.

query: Using the record for `O=C1CCCC2(CCN(c3cc(OCC(F)(F)F)ncn3)CC2)N1c1ccc(F)c(F)c1` , report its Vd.
result: 2.8

* * *

Provide the reported solubility thermodynamic of each item.
# measurement notes: Equilibrium solubility of compound at pH 6.8 using amorphous form of sample by HPLC analysis
# Assay type: physicochemical
# assay setup: buffer
Include the unit right after the number.

>  <smiles entry>
O=C(/C=C/c1ccccc1)N1CCC2(CCCC(=O)N2c2ccc(F)c(F)c2)CC1

>  <outcome measure>
solubility thermodynamic

>  <readout value>
410 µM

$$$$
>  <smiles entry>
O=C(/C=C/C1CC1)N1CCC2(CCCC(=O)N2c2ccc(Cl)c(F)c2)CC1

>  <outcome measure>
solubility thermodynamic

>  <readout value>
200 µM

$$$$

Shift focus to the following entry.
query: Using the record for `O=C(/C=C/c1ccccc1)N1CCC2(CCCC(=O)N2Cc2ccccc2)CC1` , report its solubility thermodynamic.
result: 430 µM

* * *

# measurement notes: Oral bioavailability in cynomolgus monkey at 0.3 mg/kg measured upto 24 hrs by LC-MS/MS analysis
# Format: ADME, organism-based, Macaca fascicularis
# assay setup: in vivo
outcome measure: bioavailability (%)
Numbers only, in %.

query: Using the record for `O=C1CCCC2(CCN(c3cc(OCC(F)(F)F)ncn3)CC2)N1c1ccc(F)c(F)c1` , report its bioavailability.
result: 26

* * *

# measurement notes: Volume of distribution at steady state in Beagle dog at 1 mg/kg, iv measured upto 24 hrs by LC-MS/MS analysis
# Format: ADME, organism-based, Canis lupus familiaris
# assay setup: in vivo, read-out: Vdss
outcome measure: Vd (L/kg)
Give bare numbers, in L/kg.

query: Using the record for `O=C1CCCC2(CCN(c3cc(OCC(F)(F)F)ncn3)CC2)N1c1ccc(F)c(F)c1` , report its Vd.
result: 3.5

* * *

# measurement notes: Half life in Beagle dog at 1 mg/kg, iv measured upto 24 hrs by LC-MS/MS analysis
# Type: ADME, organism-based, Canis lupus familiaris
# assay setup: in vivo
outcome measure: half-life (min)
Numbers only, in min.

query: Using the record for `O=C1CCCC2(CCN(c3cc(OCC(F)(F)F)ncn3)CC2)N1c1ccc(F)c(F)c1` , report its half-life.
result: 270

* * *

# measurement notes: Half life in C57BL6 mouse at 0.3 mg/kg, iv measured upto 24 hrs by LC-MS/MS analysis
# Type: ADME, organism-based
# assay setup: in vivo
outcome measure: half-life
Include the unit right after the number.

query: Using the record for `O=C1CCCC2(CCN(c3cc(OCC(F)(F)F)ncn3)CC2)N1c1ccc(F)c(F)c1` , report its half-life.
result: 2.8 h

* * *

# measurement notes: Volume of distribution at steady state in C57BL6 mouse at 0.3 mg/kg, iv measured upto 24 hrs by LC-MS/MS analysis
# Format: ADME, organism-based
# assay setup: in vivo, read-out: Vdss
outcome measure: Vd (L/kg)
Answers are plain numbers, in L/kg.

query: Using the record for `O=C1CCCC2(CCN(c3cc(OCC(F)(F)F)ncn3)CC2)N1c1ccc(F)c(F)c1` , report its Vd.
result: 1.3
